Reference source for all entries: paper PMC12621367

# SUBJECT_OF_TEST: Methyl-coenzyme M reductase (MCR)
# Construct: with McrB and McrG (β and γ subunits)
# ASSAY_NOTES: MCR activity inhibition with a microbial MCR ELISA kit, dose-response, OD […] nm
MEASURED_QUANTITY: IC50

• O=C(/C=C/c1ccc(O)c2oc(-c3ccc(O)c(O)c3)cc12)O[C@H](Cc1ccc(O)c(O)c1)C(=O)O = 692 µM
